Assay: total protein half-life in vivo (active degradation + dilution); higher = more stable protein
Conditions: E. coli NCM3722 delta-smpB; growth: N-lim chemostat; doubling time 6 h
observable: total protein half-life in vivo (h)
Answer format: numeric, h implied, no suffix.

Query string: Name the recorded total protein half-life in vivo of the item MENLARFLSTTLKQLRQQRGWSLSRLAEATGVSKAMLGQIERNESSPTVATLWKIATGLNVPFSTFISPPQSATPSVYDPQQQAMVITSLFPYDPQLCFEHFSIQMASGAISESTPHEKGVIEHVVVIDGQLDLCVDGEWQTLNCGEGVRFAADVTHIYRNGGEQTVHFHSLIHYPRS in your answer.
Result string: 5.33

Query string: Name the recorded total protein half-life in vivo of the item MGLPPLSKIPLILRPQAWLHRRHYGEVLSPIRWWGRIPFIFYLVSMFVGWLERKRSPLDPVVRSLVSARIAQMCLCEFCVDITSMKVAERTGSSDKLLAVADWRQSPLFSDEERLALEYAEAASVTPPTVDDALRTRLAAHFDAQALTELTALIGLQNLSARFNSAMDIPAQGLCRIPEKRS in your answer.
Result string: 5.67

Query string: Name the recorded total protein half-life in vivo of the item MQFDWSAIWPAIPLLIEGAKMTLWISVLGLAGGLVIGLLAGFARTFGGWIANHVALVFIEVIRGTPIVVQVMFIYFALPMAFNDLRIDPFTAAVVTIMINSGAYIAEITRGAVLSIHKGFREAGLALGLSRWETIRYVILPLALRRMLPPLGNQWIISIKDTSLFIVIGVAELTRQGQEIIAGNFRALEIWSAVAVFYLIITLVLSFILRRLERRMKIL [P0AEQ6] in your answer.
Result string: 6.3

Query string: Name the recorded total protein half-life in vivo of the item MSKPIVMERGVKYRDADKMALIPVKNVATEREALLRKPEWMKIKLPADSTRIQGIKAAMRKNGLHSVCEEASCPNLAECFNHGTATFMILGAICTRRCPFCDVAHGRPVAPDANEPVKLAQTIADMALRYVVITSVDRDDLRDGGAQHFADCITAIREKSPQIKIETLVPDFRGRMDRALDILTATPPDVFNHNLENVPRIYRQVRPGADYNWSLKLLERFKEAHPEIPTKSGLMVGLGETNEEIIEVMRDLRRHGVTMLTLGQYLQPSRHHLPVQRYVSPDEFDEMKAEALAMGFTHAACGPFVRSSYHADLQAKGMEVK in your answer.
Result string: 1.27

Query string: Name the recorded total protein half-life in vivo of the item MALLEICCYSMECALTAQQNGADRVELCAAPKEGGLTPSLGVLKSVRQRVTIPVHPIIRPRGGDFCYSDGEFAAILEDVRTVRELGFPGLVTGVLDVDGNVDMPRMEKIMAAAGPLAVTFHRAFDMCANPLYTLNNLAELGIARVLTSGQKSDALQGLSKIMELIAHRDAPIIMAGAGVRAENLHHFLDAGVLEVHSSAGAWQASPMRYRNQGLSMSSDEHADEYSRYIVDGAAVAEMKGIIERHQAK in your answer.
Result string: 4.47

Query string: Name the recorded total protein half-life in vivo of the item MDFNLNDEQELFVAGIRELMASENWEAYFAECDRDSVYPERFVKALADMGIDSLLIPEEHGGLDAGFVTLAAVWMELGRLGAPTYVLYQLPGGFNTFLREGTQEQIDKIMAFRGTGKQMWNSAITEPGAGSDVGSLKTTYTRRNGKIYLNGSKCFITSSAYTPYIVVMARDGASPDKPVYTEWFVDMSKPGIKVTKLEKLGLRMDSCCEITFDDVELDEKDMFGREGNGFNRVKEEFDHERFLVALTNYGTAMCAFEDAARYANQRVQFGEAIGRFQLIQEKFAHMAIKLNSMKNMLYEAAWKADNGTITSGDAAMCKYFCANAAFEVVDSAMQVLGGVGIAGNHRISRFWRDLRVDRVSGGSDEMQILTLGRAVLKQYR in your answer.
Result string: 2.77

----------
Assay: total protein half-life in vivo (active degradation + dilution); higher = more stable protein
Settings: wild type E. coli NCM3722; growth: N-lim chemostat; doubling time 12 h
observable: total protein half-life in vivo (h)
Answer format: numeric, h implied, no suffix.

Query string: Name the recorded total protein half-life in vivo of the item MLILISPAKTLDYQSPLTTTRYTLPELLDNSQQLIHEARKLTPPQISTLMRISDKLAGINAARFHDWQPDFTPANARQAILAFKGDVYTGLQAETFSEDDFDFAQQHLRMLSGLYGVLRPLDLMQPYRLEMGIRLENARGKDLYQFWGDIITNKLNEALAAQGDNVVINLASDEYFKSVKPKKLNAEIIKPVFLDEKNGKFKIISFYAKKARGLMSRFIIENRLTKPEQLTGFNSEGYFFDEDSSSNGELVFKRYEQR [P0A8I3] in your answer.
Result string: 3.47

Query string: Name the recorded total protein half-life in vivo of the item MSLTLTLTGTGGAQGVPAWGCECAACARARRSPQYRRQPCSGVVKFNDAITLIDAGLHDLADRWSPGSFQQFLLTHYHMDHVQGLFPLRWGVGDPIPVYGPPDEQGCDDLFKHPGLLDFSHTVEPFVVFDLQGLQVTPLPLNHSKLTFGYLLETAHSRVAWLSDTAGLPEKTLKFLRNNQPQVMVMDCSHPPRADAPRNHCDLNTVLALNQVIRSPRVILTHISHQFDAWLMENALPSGFEVGFDGMEIGVA in your answer.
Result string: 7.1

Query string: Name the recorded total protein half-life in vivo of the item MQTKKNEIWVGIFLLAALLAALFVCLKAANVTSIRTEPTYTLYATFDNIGGLKARSPVSIGGVVVGRVADITLDPKTYLPRVTLEIEQRYNHIPDTSSLSIRTSGLLGEQYLALNVGFEDPELGTAILKDGDTIQDTKSAMVLEDLIGQFLYGSKGDDNKNSGDAPAAAPGNNETTEPVGTTK in your answer.
Result string: 13.6

Query string: Name the recorded total protein half-life in vivo of the item MVEDILAPGLRVVFCGINPGLSSAGTGFPFAHPANRFWKVIYQAGFTDRQLKPQEAQHLLDYRCGVTKLVDRPTVQANEVSKQELHAGGRKLIEKIEDYQPQALAILGKQAYEQGFSQRGAQWGKQTLTIGSTQIWVLPNPSGLSRVSLEKLVEAYRELDQALVVRGR [P0A9H1] in your answer.
Result string: 8.94

Query string: Name the recorded total protein half-life in vivo of the item MPDQTQQFSFKVLTINIHKGFTAFNRRFILPELRDAVRTVSADIVCLQEVMGAHEVHPLHVENWPDTSHYEFLADTMWSDFAYGRNAVYPEGHHGNAVLSRYPIEHYENRDVSVDGAEKRGVLYCRIVPPMTGKAIHVMCVHLGLREAHRQAQLAMLAEWVNELPDGEPVLVAGDFNDWRQKANHPLKVQAGLDEIFTRAHGRPARTFPVQFPLLRLDRIYVKNASASAPTALPLRTWRHLSDHAPLSAEIHL [P0AAW1] in your answer.
Result string: 13.9

Query string: Name the recorded total protein half-life in vivo of the item MVINCAFIGFGKSTTRYHLPYVLNRKDSWHVAHIFRRHAKPEEQAPIYSHIHFTSDLDEVLNDPDVKLVVVCTHADSHFEYAKRALEAGKNVLVEKPFTPTLAQAKELFALAKSKGLTVTPYQNRRFDSCFLTAKKAIESGKLGEIVEVESHFDYYRPVAETKPGLPQDGAFYGLGVHTMDQIISLFGRPDHVAYDIRSLRNKANPDDTFEAQLFYGDLKAIVKTSHLVKIDYPKFIVHGKKGSFIKYGIDQQETSLKANIMPGEPGFAADDSVGVLEYVNDEGVTVREEMKPEMGDYGRVYDALYQTITHGAPNYVKESEVLTNLEILERGFEQASPSTVTLAK in your answer.
Result string: 8.63

----------
Experiment: total protein half-life in vivo (active degradation + dilution); higher = more stable protein
Conditions: wild type E. coli NCM3722; growth: P-lim chemostat; doubling time 12 h
Record form. Attribute: total protein half-life in vivo. Fill in for each entry.
Answer format: numeric, h implied, no suffix.

Query string: Name the recorded total protein half-life in vivo of the item MLTVKQIEAAKPKEKPYRLLDGNGLYLYVPVSGKKVWQLRYKIDGKEKILTVGKYPLMTLQEARDKAWTARKDISVGIDPVKAKKASSNNNSFSAIYKEWYEHKKQVWSVGYATELAKMFDDDILPIIGGLEIQDIEPMQLLEVIRRFEDRGAMERANKARRRCGEVFRYAIVTGRAKYNPAPDLADAMKGYRKKNFPFLPADQIPAFNKALATFSGSIVSLIATKVLRYTALRTKELRSMLWKNVDFENRIITIDASVMKGRKIHVVPMSDQVVELLTTLSSITKPVSEFVFAGRNDKKKPICENAVLLVIKQIGYEGLESGHGFRHEFSTIMNEHEWPADAIEVQLAHANGGSVRGIYNHAQYLDKRREMMQWWADWLDEKVE in your answer.
Result string: 10.8

Query string: Name the recorded total protein half-life in vivo of the item MKIVIAPDSFKESLSAEKCCQAIKAGFSTLFPDANYICLPIADGGEGTVDAMVAATGGNIVTLEVCGPMGEKVNAFYGLTGDGKTAVIEMAAASGLMLVAPEKRNPLLASSFGTGELIRHALDNDIRHIILGIGGSATVDGGMGMAQALGVRFLDADGQALAANGGNLARVASIEMDECDPRLANCHIEVACDVDNPLVGARGAAAVFGPQKGATPEMVEELEQGLQNYARVLQQQTEINVCQMAGGGAAGGMGIAAAVFLNADIKPGIEIVLNAVNLAQAVQGAALVITGEGRIDSQTAGGKAPLGVASVAKQFNVPVIGIAGVLGDGVEVVHQYGIDAVFSILPRLAPLAEVLASGETNLFNSARNIACAIKIGQGIKN in your answer.
Result string: 9.23

Query string: Name the recorded total protein half-life in vivo of the item MLINIGRLLMLCVWGFLILNLVHPFPRPLNIFVNVALIFTVLMHGMQLALLKSTLPKDGPQMTTAEKVRIFLFGVFELLAWQKKFKVKK in your answer.
Result string: 12.6

Query string: Name the recorded total protein half-life in vivo of the item MRLTSKGRYAVTAMLDVALNSEAGPVPLADISERQGISLSYLEQLFSRLRKNGLVSSVRGPGGGYLLGKDASSIAVGEVISAVDESVDATRCQGKGGCQGGDKCLTHALWRDLSDRLTGFLNNITLGELVNNQEVLDVSGRQHTHDAPRTRTQDAIDVKLRA [P0AGK8] in your answer.
Result string: 2.18

Query string: Name the recorded total protein half-life in vivo of the item MTSLVSLENVSVSFGQRRVLSDVSLELKPGKILTLLGPNGAGKSTLVRVVLGLVTPDEGVIKRNGKLRIGYVPQKLYLDTTLPLTVNRFLRLRPGTHKEDILPALKRVQAGHLINAPMQKLSGGETQRVLLARALLNRPQLLVLDEPTQGVDVNGQVALYDLIDQLRRELDCGVLMVSHDLHLVMAKTDEVLCLNHHICCSGTPEVVSLHPEFISMFGPRGAEQLGIYRHHHNHRHDLQGRIVLRRGNDRS [P0A9X1] in your answer.
Result string: 7.83

Query string: Name the recorded total protein half-life in vivo of the item MKTLIVSTVLAFITFSAQAAAFQVTSNEIKTGEQLTTSHVFSGFGCEGGNTSPSLTWSGVPEGTKSFAVTVYDPDAPTGSGWWHWTVVNIPATVTYLPVDAGRRDGTKLPTGAVQGRNDFGYAGFGGACPPKGDKPHHYQFKVWALKTEKIPVDSNSSGALVGYMLNANKIATAEITPVYEIK in your answer.
Result string: 10.3
